System: NCI-H460 lung
experimental_protocol: NCI tumour cell line growth inhibition, 48 h
Entries and their measured TGI follow.

Reference set (3 entries):
>  <compound>
NC(=O)CSc1c2cc(O)ccc2nc2ccc(O)cc12

>  <value_observed>
> 10 µM

$$$$
>  <compound>
CC(C)(C)C(=O)Oc1ccc(/C=C/C(=O)c2ccc(OC(=O)C(C)(C)C)cc2)cc1

>  <value_observed>
> 100 µM

$$$$
>  <compound>
COc1cc(OCc2cccc(-c3ccccc3)c2C)cc(OC)c1CN1CCCCC1C(=O)NCCOCCOCCN (configuration not stated)

>  <value_observed>
3.73 µM

$$$$

Problem: What value of TGI has been reported for the following compound? "O=c1cc(-c2ccccc2)[nH]c2cc(F)cc(F)c12"
Solution: > 100 µM

Problem: What value of TGI has been reported for the following compound? "O=c1oc(-c2ccc(O)cc2)cc2cc(O)ccc12"
Solution: 58.2 µM

Problem: What value of TGI has been reported for the following compound? "CCSc1ccc([C@@H]2[C@@H](O)C(=O)N2c2cc(OC)c(OC)c(OC)c2)cc1"
Solution: 11.9 µM

Problem: What value of TGI has been reported for the following compound? "COc1ccc(-c2nc(-c3nc4cc(Cl)c(F)cc4[nH]3)c3ccccn23)cc1"
Solution: > 100 µM

Problem: What value of TGI has been reported for the following compound? COc1cccc2c1C(=O)c1c(O)c3c(c(O)c1C2=O)C[C@@](O)(C(=O)COC(=O)c1ccccc1)C[C@@H]3OC1CC(N)C(O)C(C)O1 (some centres not stated)
Solution: 0.182 µM

Problem: What value of TGI has been reported for the following compound? "CCOC(=O)NC(Nc1cc(Cl)ccc1OC)(C(F)(F)F)C(F)(F)F"
Solution: > 100 µM

Problem: What value of TGI has been reported for the following compound? O=C(CC1(O)C(=O)Nc2ccc(F)cc21)c1ccc(C(=O)NCC2CCC3(CC2)OOC2(CCCCC2)OO3)cc1 (configuration not stated)
Solution: 6.47 µM

Problem: What value of TGI has been reported for the following compound? "O=C(O)c1nc2ccc(C(F)(F)F)cc2nc1Nc1ccc(Cl)c(Cl)c1"
Solution: 20.8 µM

Problem: What value of TGI has been reported for the following compound? "CCOc1ccc(N=C(NC(=O)c2ccccc2)SC)cc1"
Solution: > 100 µM

Problem: What value of TGI has been reported for the following compound? "O=C1CCC[C@H]2O[C@@H](COC(=O)c3ccccc3)C[C@H]2O1"
Solution: > 100 µM

Problem: What value of TGI has been reported for the following compound? "COc1cc([C@@H]2c3cc4c(cc3[C@H](OC(C)=O)[C@H]3COC(=O)[C@@H]23)OCO4)cc(OC)c1OC"
Solution: 3.3 µM

Problem: What value of TGI has been reported for the following compound? "NC(=O)c1cccnc1"
Solution: > 100 µM

Problem: What value of TGI has been reported for the following compound? C[N+](C)(C)CC1CCCCC1=O (configuration not stated)
Solution: > 100 µM

Problem: What value of TGI has been reported for the following compound? "N#Cc1c(=O)c2ccccc2n2ccccc12"
Solution: > 100 µM

###

Test system: SK-MEL-5 melanoma
experimental_protocol: NCI tumour cell line growth inhibition, 48 h
Short version: TGI at least 7 µM is T, less is F.

Consider the worked cases shown below.
>  <molecule>
FC(F)(F)c1ccc(-c2nn3ncccc3c2-c2ccnc(Nc3ccc4c(c3)OCCO4)n2)cc1

>  <cat>
T

$$$$
>  <molecule>
O=C(O)c1nc2ccc(C(F)(F)F)cc2nc1Nc1ccc(Cl)c(Cl)c1

>  <cat>
T

$$$$
>  <molecule>
Nc1ccccc1C#CC(=O)c1cccc(C(F)(F)F)c1

>  <cat>
F

$$$$

Problem: Evaluate "COc1ccc(-c2c(-c3ccccc3)c(C)c3ccccn23)cc1" : TGI at minimum 7 µM?
Solution: T

Problem: Evaluate CC1CN=C(Nc2cccc(F)c2)S1 (stereo not given) : TGI at minimum 7 µM?
Solution: T

Problem: Evaluate COc1ccc2oc(S(=O)(=O)N3CC(CCl)c4ccc(N)cc43)cc2c1 (stereo not given) : TGI at minimum 7 µM?
Solution: F

Problem: Evaluate "Clc1ccc(/C=C/c2ccc3ccccc3n2)cc1" : TGI at minimum 7 µM?
Solution: T

Problem: Evaluate "COc1ccc(/C=C(\NC(=O)c2ccccc2)c2nc3ccccc3[nH]2)cc1OC" : TGI at minimum 7 µM?
Solution: T

Problem: Evaluate "C=C1C(=O)O[C@H]2[C@H]1CC/C(Cn1cc(-c3ccc(N)cc3)nn1)=C\CC[C@@]1(C)O[C@@H]21" : TGI at minimum 7 µM?
Solution: T

###

System: HT29 colon
experimental_protocol: NCI tumour cell line growth inhibition, 48 h; in the data active = GI50 below about 0.43 µM; inactive = the rest
Parameter call: string, one of y for active, n for inactive

>  <molecule>
Cn1c(=O)n(C)c2cc(CNCCNc3ccnc4cc(Cl)ccc34)ccc21

>  <cat>
n

$$$$
>  <molecule>
Cc1cc(N/N=C/c2nc(-c3ccc(Cl)cc3)oc2C)c2cc(Br)ccc2n1

>  <cat>
n

$$$$
>  <molecule>
CCCC1(CN2c3ccccc3Sc3ccc(Cl)cc32)CCN(CC)C1 (stereo not given)

>  <cat>
n

$$$$
>  <molecule>
NC(=O)c1cccnc1

>  <cat>
n

$$$$

Problem: Identify the outcome logged in this assay for the molecule shown: "COc1ccc(-c2nc(-c3nc4cc(Cl)c(F)cc4[nH]3)c3ccccn23)cc1"
Solution: n

Problem: Identify the outcome logged in this assay for the molecule shown: CC(C)(C)[Si](C)(C)OC1[C@@H](CNC(N)=O)O[C@@H](n2cnc3c(NC(=O)Nc4ccccc4)ncnc32)[C@H]1O[Si](C)(C)C(C)(C)C (stereo not given in full)
Solution: n

Problem: Identify the outcome logged in this assay for the molecule shown: "N=c1ccc2nc3ccc(N)cc3sc-2c1"
Solution: n

Problem: Identify the outcome logged in this assay for the molecule shown: "Clc1ccc(/C=C/c2ccc3ccccc3n2)cc1"
Solution: n

Problem: Identify the outcome logged in this assay for the molecule shown: "c1ccc(-c2nc3n(c2-c2ccc4c(c2)OCO4)CCC3)nc1"
Solution: n

Problem: Identify the outcome logged in this assay for the molecule shown: "CCSc1ccc([C@@H]2[C@@H](O)C(=O)N2c2cc(OC)c(OC)c(OC)c2)cc1"
Solution: y

###

Tested on: 786-0 renal
experimental_protocol: NCI tumour cell line growth inhibition, 48 h
outcome_measure: TGI

Reference set (6 entries):
>  <compound>
Nc1nc2ccc(Sc3ccc4nc(N)[nH]c(=O)c4c3)cc2c(=O)[nH]1

>  <TGI>
> 100 µM

$$$$
>  <compound>
CCc1ccc2[nH]c(O)c(C3=Nc4ccccc4C3=O)c2c1

>  <TGI>
19 µM

$$$$
>  <compound>
NC(=O)CSc1c2cc(O)ccc2nc2ccc(O)cc12

>  <TGI>
> 10 µM

$$$$
>  <compound>
O=C(Nc1cccc(F)c1)c1cc2ccc(O)cc2oc1=Nc1cccc(F)c1

>  <TGI>
> 100 µM

$$$$
>  <compound>
Cc1cccc2[nH]c3c(c(O)cc4[nH]c5cccc(C)c5c(=O)c43)c(=O)c12

>  <TGI>
8.03 µM

$$$$
>  <compound>
CC(=O)c1ccc2c(c1)N(CCCN1CCN(CCO)CC1)c1ccccc1S2

>  <TGI>
3.64 µM

$$$$

Problem: What value of TGI has been reported for the following compound? "CCOC(=O)c1sc(-c2ccc(OS(=O)(=O)C[C@]34CCC(CC3=O)C4(C)C)c(C=O)c2)nc1C"
Solution: 4.09 µM

Problem: What value of TGI has been reported for the following compound? "CC(C)(C)C(=O)Oc1ccc(/C=C/C(=O)c2ccc(OC(=O)C(C)(C)C)cc2)cc1"
Solution: > 100 µM

Problem: What value of TGI has been reported for the following compound? "CCOc1cccc2c1N[S@@](=O)S2"
Solution: > 100 µM

Problem: What value of TGI has been reported for the following compound? "Cn1c(=Nc2ccc(Cl)cc2)sc2ccccc21"
Solution: > 100 µM

Problem: What value of TGI has been reported for the following compound? CC(=O)C(C)C(=O)N1C(=O)N(C)C2(C)N(C)C(=O)NC12C (centres undefined)
Solution: > 100 µM

Problem: What value of TGI has been reported for the following compound? COc1c2c(nc3ccccc13)-c1cc(C(CC(=O)OC(C)(C)C)C(=O)OC(C)C)c(CO)c(=O)n1C2 (centres undefined)
Solution: > 100 µM

Problem: What value of TGI has been reported for the following compound? "COc1ccc(-c2c(-c3ccccc3)c(C)c3ccccn23)cc1"
Solution: > 100 µM

Problem: What value of TGI has been reported for the following compound? CCCC1(CN2c3ccccc3Sc3ccc(Cl)cc32)CCN(CC)C1 (centres undefined)
Solution: 3.52 µM

###

System: DMS 114 small cell lung
experimental_protocol: NCI tumour cell line growth inhibition, 48 h
outcome_measure: TGI

Reference set (5 entries):
>  <molecule>
COc1cc(C(=O)N[C@H]2CCc3cc(OC)c(OC)c(OC)c3-c3ccc(SC)c(=O)cc32)cc(OC)c1OC

>  <assayed_system>
DMS 114 small cell lung

>  <outcome_measure>
TGI

>  <value_observed>
0.144 µM

$$$$
>  <molecule>
c1cc2c3c(c1)c1cc4c(cc1c[n+]3CC2)OCO4

>  <assayed_system>
DMS 114 small cell lung

>  <outcome_measure>
TGI

>  <value_observed>
9.27 µM

$$$$
>  <molecule>
CCCC(=O)N[C@H]1CCc2cc(OC)c(OC)c(OC)c2-c2ccc(SC)c(=O)cc21

>  <assayed_system>
DMS 114 small cell lung

>  <outcome_measure>
TGI

>  <value_observed>
< 0.01 µM

$$$$
>  <molecule>
O=C1c2ccccc2C(=O)C12CCc1ccccc12

>  <assayed_system>
DMS 114 small cell lung

>  <outcome_measure>
TGI

>  <value_observed>
> 100 µM

$$$$
>  <molecule>
CN(C)C(=S)/N=c1\ssc(=S)n1C

>  <assayed_system>
DMS 114 small cell lung

>  <outcome_measure>
TGI

>  <value_observed>
> 100 µM

$$$$

Next, consider the following molecule.
Problem: What value of TGI has been reported for the following molecule? "COc1cc(-c2ccc(N=Nc3ccc4c(S(=O)(=O)O)cc(S(=O)(=O)O)c(N)c4c3O)c(OC)c2)ccc1N=Nc1ccc2c(S(=O)(=O)O)cc(S(=O)(=O)O)c(N)c2c1O"
Solution: > 100 µM

Hello, the source for this data is PubChem BioAssay (NCI), in case you need it.
